Test system: NCI-H322M lung
assay_notes: NCI-60 one-dose screen, 48 h
condition_summary: 10 µM unless noted
The panel holds about 83,000 compounds, 20% with a hit somewhere; the sample as a whole holds those more often. Active and inactive are the calls of the source. How the source made its calls: active means growth percent below 10; inactive means the rest.
Entry note: the call must match one of active, inactive

Past entries and their recorded results:
Lookup: I would be grateful if you could indicate the recorded call for COc1ccc(-c2cnc(SCC(=O)Nc3ccc(-c4nc5ccccc5s4)cc3)n2-c2ccc(OC)cc2)cc1 .
Found: inactive

Lookup: I would be grateful if you could indicate the recorded call for N#Cc1c(-c2ccccc2)cc(-c2ccccc2)n(CCC(=O)O)c1=O .
Found: inactive

Lookup: I would be grateful if you could indicate the recorded call for COc1cccc(/C=N\NC(=O)c2ccncc2)c1O .
Found: inactive

Next:
Lookup: I would be grateful if you could indicate the recorded call for CCCCCc1c(C)[nH]c(/C=C2\N=C(c3ccc[nH]3)C=C2OCc2ccccc2)c1C .
Found: active

Lookup: I would be grateful if you could indicate the recorded call for BrC1CC(Br)c2c1c1c(c3c2C(Br)CC3Br)C(Br)CC1Br (stereo not given) .
Found: inactive
